system: A549; assay: Antiproliferative activity against human A549 cells measured after 72 hrs by MTT assay; assay type: functional, cell-based; details: A549, 72 h
outcomeMeasure: IC50

chemicalString: CCn1cc(/C(=N/Nc2nc3ccccc3s2)C(F)(F)F)c2cc(-c3nc(CN4CCCCC4)cs3)ccc21
IC50: > 15 µM
--
chemicalString: COc1ccc(-c2nc(N/N=C(/c3c(C)[nH]c4cc(F)c(N5CCN(CCN(C)C)CC5)cc34)C(F)(F)F)sc2C#N)cc1
IC50: > 15 µM
--
chemicalString: CCn1cc(/C(=N/Nc2nc(-c3ccc(Cl)cc3)c(C#N)s2)C(F)(F)F)c2cc(-c3nc(CN4CCC(O)CC4)cs3)ccc21
IC50: > 15 µM

Would you kindly look at the next entry?
Consider the compound CCn1cc(/C(=N/Nc2nc(-c3ccc(F)cc3)c(C#N)s2)C(F)(F)F)c2cc(-c3nc(CN4CCN(C)CC4)cs3)ccc21 and give its recorded IC50.
11.7 µM

###

tested on: NCI-H2228; experiment: Antiproliferative activity against human NCI-H2228 cells measured after 72 hrs by MTT assay; format: functional, cell-based; conditions: NCI-H2228, 72 h
outcomeMeasure: IC50 (µM)
Report as a plain number; the unit µM is understood.

chemicalString: CCn1cc(/C(=N/Nc2nc3ccccc3s2)C(F)(F)F)c2cc(-c3nc(CN4CCCC4)cs3)ccc21
systemTested: NCI-H2228
unitAbbrev: µM
valueReported: 6.31

Consider the compound CCn1cc(/C(=N/Nc2nc3ccccc3s2)C(F)(F)F)c2cc(-c3nc(CN4CCN(C)CC4)cs3)ccc21 and give its recorded IC50.
8.51

Consider the compound CCn1cc(/C(=N/Nc2nc(-c3ccc(OC)cc3)c(C#N)s2)C(F)(F)F)c2cc(-c3nc(CN4CCN(C)CC4)cs3)ccc21 and give its recorded IC50.
2.6

Consider the compound COc1ccc(-c2nc(N/N=C(/c3c(C)[nH]c4cc(F)c(N5CCN(CCN(C)C)CC5)cc34)C(F)(F)F)sc2C#N)cc1 and give its recorded IC50.
11.5

###

Reported values of pIC50 for individual entries
system: MCF7; experiment: Antiproliferative activity against human MCF7 cells measured after 72 hrs by MTT assay; format: functional, cell-based; conditions: MCF7, 72 h
The quantity pIC50 is defined as the negative base-10 logarithm of the molar concentration.

chemicalString: COc1ccc(-c2nc(N/N=C(/c3c(C)[nH]c4cc(F)c(N5CCN(CCN(C)C)CC5)cc34)C(F)(F)F)sc2C#N)cc1
pIC50: 5.54

chemicalString: CCn1cc(/C(=N/Nc2nc(-c3ccc(OC)cc3)c(C#N)s2)C(F)(F)F)c2cc(-c3nc(CN4CCN(C)CC4)cs3)ccc21
pIC50: 5.55

chemicalString: CCn1cc(/C(=N/Nc2nc3ccccc3s2)C(F)(F)F)c2cc(-c3nc(CN4CCCCC4)cs3)ccc21
pIC50: 5.51

chemicalString: CCn1cc(/C(=N/Nc2nc(-c3ccc(OC)cc3)c(C#N)s2)C(F)(F)F)c2cc(-c3nc(CN4CCC(C)CC4)cs3)ccc21
pIC50: 5.65

chemicalString: CCn1cc(/C(=N/Nc2nc(-c3ccc(F)cc3)c(C#N)s2)C(F)(F)F)c2cc(-c3nc(CN4CCC(O)CC4)cs3)ccc21
pIC50: 5.29

Consider the molecule CCN1CCN(Cc2csc(-c3ccc4c(c3)c(/C(=N/Nc3nc(-c5ccc(F)cc5)c(C#N)s3)C(F)(F)F)cn4CC)n2)CC1 and give its recorded pIC50.
5.36

Consider the molecule CCn1cc(/C(=N/Nc2nc(-c3ccc(F)cc3)c(C#N)s2)C(F)(F)F)c2cc(-c3nc(CN4CCC[C@H]4C(=O)O)cs3)ccc21 and give its recorded pIC50.
6.19

###

Reported values of pIC50 for individual entries
tested on: MCF7; test: Antiproliferative activity against human MCF7 cells measured after 72 hrs by MTT assay; format: functional, cell-based; details: MCF7, 72 h
The quantity pIC50 is defined as the negative base-10 logarithm of the molar concentration.

The cases that follow already have their pIC50 on record.
chemicalString: CCn1cc(/C(=N/Nc2nc(-c3ccc(F)cc3)c(C#N)s2)C(F)(F)F)c2cc(-c3nc(CN4CC(O)C4)cs3)ccc21
pIC50: 5.75
//
chemicalString: CCn1cc(/C(=N/Nc2nc(-c3ccc(F)cc3)c(C#N)s2)C(F)(F)F)c2cc(-c3nc(CN4CCCCC4)cs3)ccc21
pIC50: 5.80
//
chemicalString: CCn1cc(/C(=N/Nc2nc3ccccc3s2)C(F)(F)F)c2cc(-c3nc(CN4CCCC4)cs3)ccc21
pIC50: 5.75

Consider the molecule CCN1CCN(Cc2csc(-c3ccc4c(c3)c(/C(=N/Nc3nc(-c5ccc(OC)cc5)c(C#N)s3)C(F)(F)F)cn4CC)n2)CC1 and give its recorded pIC50.
5.33

Consider the molecule CCn1cc(/C(=N/Nc2nc(-c3ccc(OC)cc3)c(C#N)s2)C(F)(F)F)c2cc(-c3nc(CN4CCC(O)CC4)cs3)ccc21 and give its recorded pIC50.
5.86

Consider the molecule CCn1cc(/C(=N/Nc2nc3ccccc3s2)C(F)(F)F)c2cc(-c3nc(CN4CCC(O)CC4)cs3)ccc21 and give its recorded pIC50.
6.37

Consider the molecule CCn1cc(/C(=N/Nc2nc(-c3ccc(OC)cc3)c(C#N)s2)C(F)(F)F)c2cc(-c3nc(CN4CCC[C@H]4C(=O)O)cs3)ccc21 and give its recorded pIC50.
5.82

###

tested on: A549; test: Antiproliferative activity against human A549 cells measured after 72 hrs by MTT assay; assay type: functional, cell-based; conditions: A549, 72 h
outcomeMeasure: IC50 (µM)
Report as a plain number; the unit µM is understood.

The cases that follow already have their IC50 on record.
chemicalString: CCn1cc(/C(=N/Nc2nc3ccccc3s2)C(F)(F)F)c2cc(-c3nc(CN4CCOCC4)cs3)ccc21
systemTested: A549
unitAbbrev: µM
valueReported: 9.37
--
chemicalString: Cn1cc(/C(=N/Nc2nc(-c3ccc(F)cc3)c(C#N)s2)C(F)(F)F)c2cc(-c3nc(CN4CCC(O)CC4)cs3)ccc21
systemTested: A549
unitAbbrev: µM
valueReported: 9.21
--
chemicalString: CCn1cc(/C(=N/Nc2nc(-c3ccc(F)cc3)c(C#N)s2)C(F)(F)F)c2cc(-c3nc(CN4CC(O)C4)cs3)ccc21
systemTested: A549
unitAbbrev: µM
valueReported: 6.92
--
chemicalString: CCN1CCN(Cc2csc(-c3ccc4c(c3)c(/C(=N/Nc3nc(-c5ccc(Cl)cc5)c(C#N)s3)C(F)(F)F)cn4CC)n2)CC1
systemTested: A549
unitAbbrev: µM
valueReported: 13.8
--
chemicalString: CCn1cc(/C(=N/Nc2nc(-c3ccc(OC)cc3)c(C#N)s2)C(F)(F)F)c2cc(-c3nc(CN4CCC(C)CC4)cs3)ccc21
systemTested: A549
unitAbbrev: µM
valueReported: 9.81
--
chemicalString: Cn1cc(/C(=N/Nc2nc(-c3ccc(Cl)cc3)c(C#N)s2)C(F)(F)F)c2cc(-c3nc(CN4CCOCC4)cs3)ccc21
systemTested: A549
unitAbbrev: µM
valueReported: 9.41

Would you kindly look at the next entry?
Consider the compound CCn1cc(/C(=N/Nc2nc3ccccc3s2)C(F)(F)F)c2cc(-c3nc(CN4CCC(O)CC4)cs3)ccc21 and give its recorded IC50.
11

###

tested on: MCF7; test: Antiproliferative activity against human MCF7 cells measured after 72 hrs by MTT assay; format: functional, cell-based; details: MCF7, 72 h
outcomeMeasure: pIC50
The quantity pIC50 is defined as the negative base-10 logarithm of the molar concentration.

chemicalString: Cc1[nH]c2cc(F)c(N3CCC(C(=O)N4CCOCC4)CC3)cc2c1/C=N/Nc1nc(-c2ccc(F)cc2)c(C#N)s1
systemTested: MCF7
outcomeMeasure: pIC50
valueReported: 5.78
--
chemicalString: Cn1cc(/C(=N/Nc2nc(-c3ccc(Cl)cc3)c(C#N)s2)C(F)(F)F)c2cc(-c3nc(CN4CCOCC4)cs3)ccc21
systemTested: MCF7
outcomeMeasure: pIC50
valueReported: 5.49
--
chemicalString: O=C(CCN1CCN(C(=O)OCc2cc(Cl)cc(Cl)c2)CC1)c1ccc2[nH]c(=O)oc2c1
systemTested: MCF7
outcomeMeasure: pIC50
valueReported: 5.64

Would you kindly look at the next entry?
Consider the compound CCn1cc(/C(=N/Nc2nc(-c3ccc(Cl)cc3)c(C#N)s2)C(F)(F)F)c2cc(-c3nc(CN4CCCC4)cs3)ccc21 and give its recorded pIC50.
5.30

###

Reported values of IC50 for individual entries
target: Autotaxin (Homo sapiens)
Report as a plain number; the unit µM is understood.

The cases that follow already have their IC50 on record.
chemicalString: CCn1cc(/C(=N/Nc2nc(-c3ccc(F)cc3)c(C#N)s2)C(F)(F)F)c2cc(-c3nc(CN4CCC[C@H]4C(=O)O)cs3)ccc21
outcomeMeasure: IC50
valueReported: 0.61

chemicalString: CCn1cc(/C(=N/Nc2nc3ccccc3s2)C(F)(F)F)c2cc(-c3nc(CN4CCOCC4)cs3)ccc21
outcomeMeasure: IC50
valueReported: 0.201

Consider the molecule CCn1cc(/C(=N/Nc2nc(-c3ccc(OC)cc3)c(C#N)s2)C(F)(F)F)c2cc(-c3nc(CN4CCCC4)cs3)ccc21 and give its recorded IC50.
3.05
